Entries and their pEC50 values follow.
# systemName: human GPR40 (Homo sapiens, UniProt O14842)
# Sequence (O14842 whole entry): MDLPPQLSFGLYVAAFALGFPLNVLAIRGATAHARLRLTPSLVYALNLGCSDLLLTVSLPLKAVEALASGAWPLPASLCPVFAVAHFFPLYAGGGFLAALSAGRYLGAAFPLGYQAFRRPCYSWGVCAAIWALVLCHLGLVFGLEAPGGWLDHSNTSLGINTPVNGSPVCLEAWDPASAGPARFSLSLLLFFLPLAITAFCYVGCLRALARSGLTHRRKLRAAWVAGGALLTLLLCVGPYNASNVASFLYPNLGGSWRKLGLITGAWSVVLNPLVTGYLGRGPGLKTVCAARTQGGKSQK
# experimentalDetails: Cell-based aequorin assay using human GPR40
# cond: activation of human GPR40; CHO cells stably transfected with GPR40 and Aequorin; 0.01% HSA; aequorin luminescence
pEC50: −log10 of the molar value.

Example entries and their recorded answers appear below.
Recorded pEC50 for `O=C(O)C[C@@H](c1ccc(OCc2ccc(-c3ccc(C(F)(F)F)cc3)s2)cc1)c1ccon1` , please? 7.00 to 8.00

Quick one: pEC50 of `O=C(O)C[C@@H](c1ccc(OCc2nc(-c3cccc(C(F)(F)F)c3)no2)cc1)c1ccon1` ? 5.00 to 6.00

Recorded pEC50 for `Cc1ccc(COc2ccc([C@H](CC(=O)O)c3ccon3)cc2)cc1-c1ccc(CC(C)C)cc1` , please? 6.00 to 7.00

Fill in: pEC50 of `CC1(C)CCC=C1c1cc(COc2ccc([C@H](CC(=O)O)c3ccon3)cc2)ccc1OC(F)(F)F` is ___ 7.00 to 8.00

Suppose we examine the compound `Cc1nc(-c2ccc(C(F)(F)F)cc2)sc1COc1ccc([C@@H](CC(=O)O)c2ccon2)cc1` ; what pEC50 value has been reported? 6.00 to 7.00

Note: attention shifts to another entry.
Which value of pEC50 has been reported for Cc1c(Cl)cccc1-c1cccc(COc2ccc(C(CC(=O)O)c3ccon3)cc2)c1 (stereo not drawn) in the records? 7.00 to 8.00
